- Test system: 786-0 renal
- test-description: NCI-60 one-dose screen, 48 h
- experimental-conditions: 10 µM unless noted
The panel holds about 83,000 compounds, 20% with a hit somewhere; the sample as a whole holds those more often. Active and inactive are the calls of the source. Rule for the calls: active = growth percent below 10; inactive = the rest.
Lab note: assign the record to one of active, inactive

>>> print(df.to_string())
                                   molecule  label_class
0  CC[C@]12C=CCN3CC[C@@]4(c5ccc(OC)cc5N(C)[C@H]4[C@@](O)(C(=O)OC)[C@@H]1OC(=O)CCC[P+](c1ccccc1)(c1ccccc1)c1ccccc1)[C@@H]32     inactive
1  CNC1=C([N+](=O)[O-])C(c2ccc(OC)cc2)C(C#N)=C(c2cccs2)O1 (stereo unspecified)     inactive
2  Cc1ccc2c(-n3nc(C#N)c(C#N)c3N)cc(=O)[nH]c2c1     inactive
3                  Cc1ccc(N2C(=O)CCC2=O)cc1     inactive
4    Cc1ccc(S(=O)(=O)N2CCC(=O)c3ccccc32)cc1     inactive
5            CCCCC#Cc1c(I)n(C)c(=O)[nH]c1=O     inactive
6  N#Cc1ccc(O)c(C2=NCC(Cc3ccccc3)O2)c1 (stereo unspecified)     inactive
7  N#Cc1cccc(C2C3=C(COC3=O)N(CCO)c3cc4c(cc32)CCC4)c1 (stereo unspecified)     inactive
8  O=C1Nc2ccccc2C1(c1c[nH]c2ccccc12)c1c[nH]c2ccccc12     inactive
9        CN(CCC(=O)c1ccccc1)CCC(=O)c1ccccc1     inactive

Prompt: Could you check what this test reported for Cc1ccc2nc(/C(C#N)=C(/CCCO)NC(Cc3ccccc3)C(=O)OCc3ccccc3)[nH]c(=O)c2c1 (stereo unspecified) ?
Response: inactive

Prompt: // param item: `COc1cccc(C(=O)NNc2nc(Cl)nc(Cl)n2)c1` ; yields the recorded call
Response: inactive

Prompt: Would you mind telling me which call this test gave `CCSc1oc(C)nc1[P+](c1ccccc1)(c1ccccc1)c1ccccc1` ?
Response: inactive

Prompt: # lookup: test call for `Cc1cccc(-c2nc(Nc3ccc4ncsc4c3)c3ccccc3n2)n1`
Response: inactive

Prompt: What call does the record list for `N#Cc1c(-c2ccccc2)nc(SCc2nnc(-c3ccc(Cl)cc3)o2)[nH]c1=O` ?
Response: inactive

Prompt: Hello, I am checking results. What call was entered for `Cc1ccc(C)c2c(C)c(C(=O)Nc3cccc(-n4cccn4)c3)oc12` ?
Response: inactive

Sourced from PubChem BioAssay (NCI)
